Source of measurements: patent US8877741B2

study system: human ACC2 (Homo sapiens (Human), UniProt O00763)
Sequence (O00763 129-2458): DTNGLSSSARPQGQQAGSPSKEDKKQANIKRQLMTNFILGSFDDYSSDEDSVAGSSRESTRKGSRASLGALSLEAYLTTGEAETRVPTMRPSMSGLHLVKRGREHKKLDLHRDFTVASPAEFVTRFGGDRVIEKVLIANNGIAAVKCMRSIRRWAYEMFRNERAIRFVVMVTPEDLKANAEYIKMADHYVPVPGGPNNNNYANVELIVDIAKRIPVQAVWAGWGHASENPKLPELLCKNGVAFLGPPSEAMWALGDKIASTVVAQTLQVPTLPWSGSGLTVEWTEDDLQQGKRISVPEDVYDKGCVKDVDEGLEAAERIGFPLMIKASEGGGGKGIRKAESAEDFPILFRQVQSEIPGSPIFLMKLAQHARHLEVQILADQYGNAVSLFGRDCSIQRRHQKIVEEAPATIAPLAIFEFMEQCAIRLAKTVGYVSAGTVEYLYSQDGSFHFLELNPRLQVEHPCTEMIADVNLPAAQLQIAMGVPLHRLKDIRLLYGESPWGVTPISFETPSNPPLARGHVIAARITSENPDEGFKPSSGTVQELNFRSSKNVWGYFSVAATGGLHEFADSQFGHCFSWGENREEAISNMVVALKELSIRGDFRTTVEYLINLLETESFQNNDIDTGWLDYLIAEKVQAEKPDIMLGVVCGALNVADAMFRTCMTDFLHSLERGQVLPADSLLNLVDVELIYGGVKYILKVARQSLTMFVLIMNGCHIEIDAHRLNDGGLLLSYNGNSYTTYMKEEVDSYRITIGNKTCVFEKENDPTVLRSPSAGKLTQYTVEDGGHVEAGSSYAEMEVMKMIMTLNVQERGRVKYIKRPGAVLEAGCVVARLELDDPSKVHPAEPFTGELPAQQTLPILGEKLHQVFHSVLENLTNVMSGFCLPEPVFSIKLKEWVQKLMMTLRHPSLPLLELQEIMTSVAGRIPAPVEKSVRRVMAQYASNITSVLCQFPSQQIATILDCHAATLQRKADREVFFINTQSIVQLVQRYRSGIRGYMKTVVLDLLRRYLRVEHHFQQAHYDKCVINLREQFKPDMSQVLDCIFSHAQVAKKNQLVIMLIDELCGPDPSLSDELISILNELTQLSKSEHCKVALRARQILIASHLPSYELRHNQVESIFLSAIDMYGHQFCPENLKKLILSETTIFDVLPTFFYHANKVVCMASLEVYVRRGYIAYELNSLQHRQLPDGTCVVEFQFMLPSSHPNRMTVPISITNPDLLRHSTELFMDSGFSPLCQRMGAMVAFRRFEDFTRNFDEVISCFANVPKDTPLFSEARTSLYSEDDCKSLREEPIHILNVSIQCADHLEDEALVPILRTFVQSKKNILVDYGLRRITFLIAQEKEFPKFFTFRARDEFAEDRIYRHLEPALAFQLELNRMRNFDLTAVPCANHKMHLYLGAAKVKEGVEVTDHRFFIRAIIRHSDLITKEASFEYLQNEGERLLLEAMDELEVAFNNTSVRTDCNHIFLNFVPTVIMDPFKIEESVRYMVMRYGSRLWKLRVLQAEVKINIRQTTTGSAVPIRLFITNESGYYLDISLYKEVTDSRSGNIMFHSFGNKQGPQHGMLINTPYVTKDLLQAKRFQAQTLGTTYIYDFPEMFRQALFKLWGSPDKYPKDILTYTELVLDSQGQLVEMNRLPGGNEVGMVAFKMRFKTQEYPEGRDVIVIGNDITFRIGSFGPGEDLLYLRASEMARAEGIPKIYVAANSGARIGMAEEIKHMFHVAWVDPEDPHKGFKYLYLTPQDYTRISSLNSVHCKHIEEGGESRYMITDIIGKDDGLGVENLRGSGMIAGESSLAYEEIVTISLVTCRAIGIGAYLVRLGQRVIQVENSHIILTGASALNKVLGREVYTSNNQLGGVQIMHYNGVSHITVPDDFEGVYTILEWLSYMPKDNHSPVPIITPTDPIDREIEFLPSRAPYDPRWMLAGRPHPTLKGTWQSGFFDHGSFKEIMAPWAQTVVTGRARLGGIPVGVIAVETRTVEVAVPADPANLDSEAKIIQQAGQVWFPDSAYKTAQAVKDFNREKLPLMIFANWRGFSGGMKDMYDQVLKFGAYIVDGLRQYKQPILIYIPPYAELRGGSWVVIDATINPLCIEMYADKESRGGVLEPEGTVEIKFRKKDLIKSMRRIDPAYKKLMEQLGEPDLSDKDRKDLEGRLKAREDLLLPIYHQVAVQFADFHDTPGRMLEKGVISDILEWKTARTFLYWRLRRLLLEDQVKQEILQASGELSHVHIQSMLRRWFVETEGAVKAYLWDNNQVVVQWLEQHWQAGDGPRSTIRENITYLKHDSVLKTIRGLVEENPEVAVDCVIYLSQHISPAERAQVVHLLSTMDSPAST
pIC50: −log10 of the molar value.
readout label: pIC50

Take a look at these entries with their results.
Simply: "CC(=O)N[C@@H](C)c1ccc(O[C@@H]2CCN(c3ccnc(OCc4cccnc4)c3)C2)cc1" , human ACC2 (Homo sapiens (Human), UniProt O00763), pIC50 = 6.40

Entry "C[C@H](NC=O)c1ccc(O[C@@H]2CCN(c3cccc(C(F)(F)F)n3)C2)cc1" , human ACC2 (Homo sapiens (Human), UniProt O00763) data, pIC50 value: 6.05

I. C[C@H](NC(=O)c1cnc(N)o1)c1ccc(OC2CCN(c3ccnc(OCC4CC4)c3)C2)cc1 (stereo partly shown)
II. CCC(C)Oc1cc(N2CC[C@@H](Oc3ccc([C@H](C)NC(C)=O)cc3)C2)ccn1 (stereo partly shown)
III. CCN(CCO)c1cccc(N2CC[C@@H](Oc3ccc([C@H](C)NC(C)=O)cc3)C2)n1
IV. Cc1[nH]ncc1C(=O)N[C@@H](C)c1ccc(OC2CCN(c3ccnc(OCC4CC4)c3)C2)cc1 (stereo partly shown)
In this exercise, place the 4 compounds in ascending sequence of their recorded pIC50. List the labels in the requested order. III, I, IV, II

A. C[C@H](NC(=O)N(C)C)c1ccc(OC2CCN(c3ccnc(OCC(F)F)c3F)C2)cc1 (stereo partly shown)
B. CC(=O)N[C@@H](C)c1ccc(O[C@@H]2CCN(c3cccc(N(C)C[C@H]4CCCO4)n3)C2)cc1
// select label with min value of measured pIC50 from [ A , B ] Return value: the label identifying the chosen record. B
(B: 6.78, A: 7.14)

a. CC(=O)N[C@@H](C)c1ccc(O[C@@H]2CCN(c3ccnc(OCC(C)(F)F)c3F)C2)cc1
b. CC(=O)N[C@@H](C)c1ccc(OC2CCN(c3cccc(C4(S(C)(=O)=O)CC4)n3)C2)cc1 (stereo partly shown)
Compare a and b by numeric pIC50 and name the larger one. # reply format: chosen label a
